Recorded IC50 values for a group of compounds are listed next.
measurement target: KRAS G12D (Homo sapiens, UniProt P01116, G12D)
Construct: Recombinant human RAS protein (2 nM)
Sequence (P01116 1-188 isoform P01116-2 G12D): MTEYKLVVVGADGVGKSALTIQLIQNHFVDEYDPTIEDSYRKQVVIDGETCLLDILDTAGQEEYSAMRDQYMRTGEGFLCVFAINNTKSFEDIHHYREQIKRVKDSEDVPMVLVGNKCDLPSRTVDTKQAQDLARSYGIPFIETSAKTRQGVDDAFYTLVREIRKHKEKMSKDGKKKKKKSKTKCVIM
experiment notes: HTRF nucleotide exchange assay (NEA), KRAS G12D
test settings: recombinant human KRAS G12D aa1-188, 2 nM; lowest class = % inhibition at 10 μM
metric name: IC50

[
  {
    "compound": "CC(=O)OCCCNc1nc(OCC23CCCN2CCC3)nc2c(F)c(-c3cc(O)cc4ccccc34)ncc12 [Example 64]",
    "measurement target": "KRAS G12D (Homo sapiens, UniProt P01116, G12D)",
    "metric name": "IC50",
    "result": "100 to 10000 nM"
  },
  {
    "compound": "C#Cc1c(F)ccc2cc(O)cc(-c3ncc4c(NCCCOC)nc(OC[C@@]56CCCN5C[C@H](F)C6)nc4c3F)c12 (relative stereo) [Example 85]",
    "measurement target": "KRAS G12D (Homo sapiens, UniProt P01116, G12D)",
    "metric name": "IC50",
    "result": "≤ 10 nM"
  },
  {
    "compound": "C#Cc1c(F)ccc2cc(O)cc(-c3ncc4c(N5CCCCCC5)nc(OC[C@@]56CCCN5C[C@H](F)C6)nc4c3F)c12 (relative stereo) [Example 84]",
    "measurement target": "KRAS G12D (Homo sapiens, UniProt P01116, G12D)",
    "metric name": "IC50",
    "result": "≤ 10 nM"
  },
  {
    "compound": "Oc1cc(-c2ncc3c(NC4CCOCC4)nc(OCC45CCCN4CCC5)nc3c2F)c2ccccc2c1 [Example 15]",
    "measurement target": "KRAS G12D (Homo sapiens, UniProt P01116, G12D)",
    "metric name": "IC50",
    "result": "100 to 10000 nM"
  },
  {
    "compound": "Oc1cc(-c2ncc3c(N4CCC5(CCOC5)C4)nc(OCC45CCCN4CCC5)nc3c2F)c2ccccc2c1 (stereo not shown) [Example 48]",
    "measurement target": "KRAS G12D (Homo sapiens, UniProt P01116, G12D)",
    "metric name": "IC50",
    "result": "100 to 10000 nM"
  },
  {
    "compound": "Oc1cc(-c2ncc3c(N4CCn5cncc5C4)nc(OCC45CCCN4CCC5)nc3c2F)c2ccccc2c1 [Example 58]",
    "measurement target": "KRAS G12D (Homo sapiens, UniProt P01116, G12D)",
    "metric name": "IC50",
    "result": "100 to 10000 nM"
  },
  {
    "compound": "O=S1(=O)CCCN(c2nc(OCC34CCCN3CCC4)nc3c(F)c(-c4cc(O)cc5ccccc45)ncc23)CC1 [Example 24]",
    "measurement target": "KRAS G12D (Homo sapiens, UniProt P01116, G12D)",
    "metric name": "IC50",
    "result": "100 to 10000 nM"
  }
]

---

measurement target: KRAS G12V (Homo sapiens, UniProt P01116, G12V)
Construct: 4 nM KRAS; aa1-188 containing the G12V, G12C, G12A or G12S amino acid substitution
Sequence (P01116 1-188 isoform P01116-2 G12V): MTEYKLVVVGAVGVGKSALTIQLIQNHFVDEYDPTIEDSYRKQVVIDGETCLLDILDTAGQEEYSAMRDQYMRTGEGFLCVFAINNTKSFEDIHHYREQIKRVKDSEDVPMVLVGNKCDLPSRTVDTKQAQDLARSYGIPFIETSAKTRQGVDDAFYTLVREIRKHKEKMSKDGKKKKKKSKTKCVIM
experiment notes: HTRF nucleotide exchange assay (NEA), KRAS G12V
Assay type: biochemical
pIC50: −log10 of the molar value.

[
  {
    "compound": "O=C1CC2(CCN(c3nc(OCC45CCCN4CCC5)nc4c(F)c(-c5cc(O)cc6ccccc56)ncc34)C2)CN1 (stereo not shown)",
    "measurement target": "KRAS G12V (Homo sapiens, UniProt P01116, G12V)",
    "pIC50": "5.00 to 7.00"
  },
  {
    "compound": "Oc1cc(-c2ncc3c(N4CCC5COCC5C4)nc(OCC45CCCN4CCC5)nc3c2F)c2ccccc2c1 (stereo not shown)",
    "measurement target": "KRAS G12V (Homo sapiens, UniProt P01116, G12V)",
    "pIC50": "5.00 to 7.00"
  },
  {
    "compound": "Oc1cc(-c2ncc3c(NCC4CCOCC4)nc(OCC45CCCN4CCC5)nc3c2F)c2ccccc2c1",
    "measurement target": "KRAS G12V (Homo sapiens, UniProt P01116, G12V)",
    "pIC50": "5.00 to 7.00"
  },
  {
    "compound": "Oc1cc(-c2ncc3c(N4CCCSCC4)nc(OCC45CCCN4CCC5)nc3c2F)c2ccccc2c1",
    "measurement target": "KRAS G12V (Homo sapiens, UniProt P01116, G12V)",
    "pIC50": "≥ 8.00"
  },
  {
    "compound": "OCC1CCN(c2nc(OCC34CCCN3CCC4)nc3c(F)c(-c4cc(O)cc5ccccc45)ncc23)CC1",
    "measurement target": "KRAS G12V (Homo sapiens, UniProt P01116, G12V)",
    "pIC50": "7.00 to 8.00"
  },
  {
    "compound": "Oc1cc(-c2ncc3c(N4CCCC5(CCOC5)C4)nc(OCC45CCCN4CCC5)nc3c2F)c2ccccc2c1 (stereo not shown)",
    "measurement target": "KRAS G12V (Homo sapiens, UniProt P01116, G12V)",
    "pIC50": "5.00 to 7.00"
  },
  {
    "compound": "Oc1cc(-c2ncc3c(N4CCCCCC4)nc(OCC45CCCN4CCC5)nc3c2F)c2ccccc2c1",
    "measurement target": "KRAS G12V (Homo sapiens, UniProt P01116, G12V)",
    "pIC50": "7.00 to 8.00"
  }
]

meta.source: patent US20240279241A1
